- Tested on: 276233-004-R-J1-PDC KRAS spheroids with HUVEC/MSC, viability;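 also: cells exposed to agents for seven days before viability read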
- EXPERIMENT_DESCRIPTION: Anticancer human tumor 276233-004-R-J1-PDC patient-derived colon adenocarcinoma cell line growth inhibition [KRAS2]
- MEASUREMENT_PARAMETERS: curve of first compound; second compound 10 µM
Overview of recorded IC50 for various compounds

# example entries with known answers
[[record]]
compound = "COc1cc2nccc(Oc3ccc(NC(=O)C4(C(=O)Nc5ccc(F)cc5)CC4)cc3)c2cc1OC + C=CC(=O)N1CCN(c2nc(=O)n(-c3c(C)ccnc3C(C)C)c3nc(-c4c(O)cccc4F)c(F)cc23)C(C)C1"
measured_target = "276233-004-R-J1-PDC KRAS spheroids with HUVEC/MSC, viability"
measurement_kind = "IC50"
observed = "> 10000 nM"

[[record]]
compound = "O=C(c1cc(Cc2n[nH]c(=O)c3ccccc23)ccc1F)N1CCN(C(=O)C2CC2)CC1 + CNCc1ccccc1-c1csc(C(C)Nc2nc(C)nc3cc(OC)c(OC)cc23)c1"
measured_target = "276233-004-R-J1-PDC KRAS spheroids with HUVEC/MSC, viability"
measurement_kind = "IC50"
observed = "< 31.6 nM"

[[record]]
compound = "CCN1CCN(Cc2ccc(Nc3ncc(F)c(-c4cc(F)c5nc(C)n(C(C)C)c5c4)n3)nc2)CC1 + CC1OCC2(CCN(c3cnc(Sc4ccnc(N)c4Cl)c(N)n3)CC2)C1N"
measured_target = "276233-004-R-J1-PDC KRAS spheroids with HUVEC/MSC, viability"
measurement_kind = "IC50"
observed = "> 1000 nM"


### Prompt What measured IC50 goes with CC1COCCN1c1cc(-c2ccnn2C)c2ccnc(-c3ccn[nH]3)c2n1 (stereo not given) + C=CC(=O)N1CCN(c2nc(=O)n(-c3c(C)ccnc3C(C)C)c3nc(-c4c(O)cccc4F)c(F)cc23)C(C)C1 ?
### Response 1000 nM

### Prompt CCNC(=O)CC1N=C(c2ccc(Cl)cc2)c2cc(OC)ccc2-n2c(C)nnc21 (stereo not given) + C=CC(=O)N1CCN(c2nc(=O)n(-c3c(C)ccnc3C(C)C)c3nc(-c4c(O)cccc4F)c(F)cc23)C(C)C1 ?
### Response > 10000 nM
